# tested_on: glycine transporter-1 (GlyT-1) (Homo sapiens)
# Construct: JAR cells (ATCC#HTB-144), which endogenously express GlyT-1; host or cells: JAR human choriocarcinoma cells
# Sequence (P48067 1-706): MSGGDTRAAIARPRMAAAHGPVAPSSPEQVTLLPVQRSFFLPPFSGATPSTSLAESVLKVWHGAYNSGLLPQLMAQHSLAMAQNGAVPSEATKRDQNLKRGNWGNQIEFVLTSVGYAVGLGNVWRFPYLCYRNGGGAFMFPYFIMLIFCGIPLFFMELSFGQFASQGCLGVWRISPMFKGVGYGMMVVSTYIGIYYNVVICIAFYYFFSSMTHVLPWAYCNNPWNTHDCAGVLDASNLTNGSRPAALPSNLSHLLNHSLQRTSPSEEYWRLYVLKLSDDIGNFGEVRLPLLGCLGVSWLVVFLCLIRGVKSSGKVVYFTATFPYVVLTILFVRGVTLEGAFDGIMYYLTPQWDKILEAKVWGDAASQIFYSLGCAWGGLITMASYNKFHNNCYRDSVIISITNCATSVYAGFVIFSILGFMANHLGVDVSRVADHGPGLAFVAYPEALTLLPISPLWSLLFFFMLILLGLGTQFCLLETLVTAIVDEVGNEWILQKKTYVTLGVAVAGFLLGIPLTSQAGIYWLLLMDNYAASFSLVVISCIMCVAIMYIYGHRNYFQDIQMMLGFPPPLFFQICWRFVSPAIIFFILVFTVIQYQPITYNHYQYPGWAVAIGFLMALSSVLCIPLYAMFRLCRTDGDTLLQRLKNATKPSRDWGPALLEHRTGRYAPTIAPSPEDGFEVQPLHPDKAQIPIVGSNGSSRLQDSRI
# protocol_details: [14C]glycine uptake assay in JAR cells endogenously expressing GlyT-1 (scintillation proximity)
# Format: cell-based
# condition_set: GlyT-1 IC50 (nM)
Counter-ions that a name gives are not always drawn.
Reported IC50 values for a set of compounds
Just the number in nM, nothing appended.

Worked cases, IC50 given:
>  <compound>
CCCS(=O)(=O)N1CCN(C2(CNC(=O)c3c(F)cccc3F)CC3CC3C2)CC1 (stereo not drawn) [compound 199, Hydrochloride]

>  <readout_units>
nM

>  <IC50>
621

$$$$
>  <compound>
CCCS(=O)(=O)N1CCN(C2(CNC(=O)c3c(OC)cc(F)cc3SC)CCCCC2)CC1 [compound 20, Hydrochloride]

>  <readout_units>
nM

>  <IC50>
6

$$$$

In the following, a different compound is considered.
Challenge: Quick check: IC50 of CCCS(=O)(=O)N1CCN(C2(CNC(=O)c3cccc(C(F)(F)F)c3Cl)CCCCC2)CC1 [compound 22, Hydrochloride] ?
Response given: 77

* * *

# tested_on: glycine transporter-1 (GlyT-1) (Homo sapiens)
# Construct: JAR cells (ATCC#HTB-144), which endogenously express GlyT-1; host or cells: JAR human choriocarcinoma cells
# Sequence (P48067 1-706): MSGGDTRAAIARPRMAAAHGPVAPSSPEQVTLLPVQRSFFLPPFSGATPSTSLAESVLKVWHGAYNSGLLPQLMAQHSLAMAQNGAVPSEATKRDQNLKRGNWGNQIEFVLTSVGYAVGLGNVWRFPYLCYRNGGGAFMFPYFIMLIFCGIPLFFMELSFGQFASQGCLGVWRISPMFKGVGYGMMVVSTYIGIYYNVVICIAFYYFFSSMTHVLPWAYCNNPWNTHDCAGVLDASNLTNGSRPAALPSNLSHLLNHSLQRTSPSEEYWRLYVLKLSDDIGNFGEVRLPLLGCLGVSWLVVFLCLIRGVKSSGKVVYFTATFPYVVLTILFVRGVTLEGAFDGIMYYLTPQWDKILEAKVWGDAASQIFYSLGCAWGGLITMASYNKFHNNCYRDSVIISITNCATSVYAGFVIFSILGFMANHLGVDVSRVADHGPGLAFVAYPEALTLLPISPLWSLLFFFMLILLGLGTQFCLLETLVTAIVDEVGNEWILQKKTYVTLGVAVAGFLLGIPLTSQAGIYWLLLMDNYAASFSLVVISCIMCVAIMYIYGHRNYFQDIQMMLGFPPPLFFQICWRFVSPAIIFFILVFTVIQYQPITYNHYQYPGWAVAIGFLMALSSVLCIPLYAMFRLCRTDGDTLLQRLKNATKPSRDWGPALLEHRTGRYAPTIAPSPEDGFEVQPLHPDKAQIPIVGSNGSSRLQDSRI
# protocol_details: [14C]glycine uptake assay in JAR cells endogenously expressing GlyT-1 (scintillation proximity)
# Type: cell-based
# condition_set: JAR cells, [14C]glycine 5 μM, 3 hour incubation; read-out: GlyT-1 IC50
Counter-ions that a name gives are not always drawn.
Rule: IC50 below 5 nM gives Fulfilled, anything at or above gives Not fulfilled.

>  <molecule>
COc1cc(F)cc(C)c1C(=O)NCC1(N2CCN(S(=O)(=O)CC3CC3)CC2)CCCCCC1 [compound 86, Hydrochloride]

>  <group_label>
Not fulfilled

$$$$
>  <molecule>
CCCS(=O)(=O)N1CCN(C2(CNC(=O)c3c(C)cc(F)cc3OC)CCCCCC2)CC1 [compound 69, Hydrochloride]

>  <group_label>
Fulfilled

$$$$
>  <molecule>
Cn1cc(S(=O)(=O)N2CCN(C3(CNC(=O)c4ccc(F)cc4C(F)(F)F)CCC(F)(F)CC3)CC2)nn1 [compound 233, Hydrochloride]

>  <group_label>
Fulfilled

$$$$

Challenge: Consider the molecule CCCS(=O)(=O)N1CCN(C2(CNC(=O)c3c(N)cccc3Cl)CCCC2)CC1 [compound 77, Hydrochloride] . Is its IC50 strictly less than 5 nM?
Response given: Not fulfilled

Challenge: Consider the molecule CCCS(=O)(=O)N1CCN(C2(CNC(=O)c3ccc(F)cc3)CCCCC2)CC1 [compound 15, Hydrochloride] . Is its IC50 strictly less than 5 nM?
Response given: Not fulfilled

Challenge: Consider the molecule Cn1cnc(S(=O)(=O)N2CCN(C3(CNC(=O)c4c(F)cccc4OC(F)F)CCC(F)(F)CC3)CC2)c1 [compound 188, Hydrochloride] . Is its IC50 strictly less than 5 nM?
Response given: Fulfilled

Challenge: Consider the molecule CCS(=O)(=O)N1CCN(C2(CNC(=O)c3c(C)cc(F)cc3OC)CCCCCC2)CC1 [compound 87, Hydrochloride] . Is its IC50 strictly less than 5 nM?
Response given: Not fulfilled

Challenge: Consider the molecule COc1ccccc1C(=O)NCC1(N2CCN(S(=O)(=O)c3cn(C)cn3)CC2)CCC(F)(F)CC1 [compound 177, Hydrochloride] . Is its IC50 strictly less than 5 nM?
Response given: Not fulfilled

Challenge: Consider the molecule CCS(=O)(=O)N1CCN(C2(CNC(=O)c3c(Cl)cccc3Cl)CCCCCC2)CC1 [compound 88, Hydrochloride] . Is its IC50 strictly less than 5 nM?
Response given: Not fulfilled
